PROTOCOL_TEXT: in vitro
CONDITIONS: rat, plasma
ASSAY_READOUT: fraction unbound

Return fraction unbound for the following molecule: CN[C@@H](C)C(=O)N[C@H](C(=O)N1C[C@H]2CCCCOc3ccc(cc3)C[C@@H](C(=O)O)NC(=O)[C@H](Cc3ccc4ccccc4c3)NC(=O)[C@@H]3C[C@@H](CN3C(=O)[C@@H](NC(=O)[C@H](C)NC)C(C)(C)C)n3cc(nn3)COc3ccc(cc3)C[C@@H](NS(=O)(=O)C3CC3)NC(=O)[C@H](Cc3ccc4ccccc4c3)NC(=O)[C@@H]1C2)C(C)(C)C
0.019

====

PROTOCOL_TEXT: in vitro
CONDITIONS: mouse, liver microsomes
ASSAY_READOUT: half-life

Return half-life for the following molecule: CN[C@@H](C)C(=O)N[C@H](C(=O)N1C[C@H]2CCCCOc3ccc(cc3)C[C@@H](C(=O)O)NC(=O)[C@H](Cc3ccc4ccccc4c3)NC(=O)[C@@H]3C[C@@H](CN3C(=O)[C@@H](NC(=O)[C@H](C)NC)C(C)(C)C)n3cc(nn3)COc3ccc(cc3)C[C@@H](NS(=O)(=O)C3CC3)NC(=O)[C@H](Cc3ccc4ccccc4c3)NC(=O)[C@@H]1C2)C(C)(C)C
> 120 min
